Source: paper PMC5011342

# Tested on: expanded OPCs
# assay-comment: cells
# run-conditions: alamarBlue viability of expanded OPCs, compound at 1 µM, relative to DMSO control
endpoint-name: 1 µM (% DMSO)
Report only the number, with the unit % DMSO understood.

Known results for compounds:
compound: CCCNC(=O)NS(=O)(=O)c1ccc(Cl)cc1 [Chlorpropamide]
units-text: % DMSO
1 µM (% DMSO): 197.2
//
compound: CC(=O)OCC(=O)[C@@]1(O)CC[C@H]2[C@@H]3C[C@H](C)C4=CC(=O)C=C[C@]4(C)[C@H]3[C@@H](O)C[C@@]21C [Methylprednisolone acetate]
units-text: % DMSO
1 µM (% DMSO): 104.6
//
compound: CO/N=C(\C(=O)N[C@@H]1C(=O)N2C(C(=O)O)=C(COC(N)=O)CS[C@H]12)c1ccco1
units-text: % DMSO
1 µM (% DMSO): 94.9
//
compound: COc1ccc(Cl)cc1C(=O)NCCc1ccc(S(=O)(=O)NC(=O)NC2CCCCC2)cc1 [Glyburide]
units-text: % DMSO
1 µM (% DMSO): 91.5
//
compound: O=C(O)CCCc1ccccc1
units-text: % DMSO
1 µM (% DMSO): 91.7

Which 1 µM (% DMSO) reading was recorded for the compound "CCOC(=O)[C@H](CCc1ccccc1)N[C@@H](C)C(=O)N1CCC[C@H]1C(=O)O" ?
90.6

Next compound up: CCCC1O[C@@H]2C[C@H]3[C@@H]4CCC5=CC(=O)C=C[C@]5(C)[C@H]4[C@@H](O)C[C@]3(C)[C@]2(C(=O)CO)O1 (stereo partly drawn) [Budesonide]
115.9

Next compound up: CC/C(=C(\c1ccccc1)c1ccc(OCCN(C)C)cc1)c1ccccc1 [Tamoxifen, reference compound]
55.1

Next compound up: "Nc1cc(N2CCCCC2)nc(N)[n+]1[O-]"
102.8

Next compound up: CC(=O)OCC(=O)[C@@]12OC(C)(C)O[C@@H]1C[C@H]1[C@@H]3C[C@H](F)C4=CC(=O)C=C[C@]4(C)[C@@]3(F)[C@@H](O)C[C@@]12C [Fluocinonide]
102.9

Next compound up: "NC(=O)c1ncn([C@@H]2O[C@H](CO)[C@@H](O)[C@H]2O)n1"
92.8

----------
Each entry below carries its recorded viability at 1 µM.
# Tested on: expanded OPCs
# assay-comment: cells
# run-conditions: Rattus norvegicus, 72 h, read-out: 1 µM (% DMSO), alamarBlue viability of expanded OPCs, compound at 1 µM, sheet All Tox data
Report only the number, with the unit % understood.

Known results for molecules:
molecule: CC(=O)O[C@]1(C(C)=O)CC[C@H]2[C@@H]3C=C(C)C4=CC(=O)CC[C@]4(C)[C@H]3CC[C@@]21C [Megestrol acetate]
target-under-test: expanded OPCs
val: 89.3

molecule: COc1cc2nc(N3CCN(C(=O)c4ccco4)CC3)nc(N)c2cc1OC [Prazosin]
target-under-test: expanded OPCs
val: 87.6

molecule: COc1ccccc1N1CCN(CC(O)COc2cccc3ccccc23)CC1 (stereo not shown) [Naftopidil]
target-under-test: expanded OPCs
val: 87.5

molecule: COc1ccc(/C=C/C(=O)Nc2ccccc2C(=O)O)cc1OC [Tranilast]
target-under-test: expanded OPCs
val: 90

Find the measured viability at 1 µM: item CN1[C@@H]2CC[C@H]1C[C@@H](OC(=O)c1c[nH]c3ccccc13)C2 [Tropisetron] , target or system expanded OPCs.
90.9

Next molecule up: CN1C(=O)CC[C@H]1c1cccnc1 [Cotinine]
92

Next molecule up: CCOC(=O)c1ncn2c1CN(C)C(=O)c1cc(F)ccc1-2 [Flumazenil]
88.2
